Test system: JJN-3 (NIK translocated) multiple myeloma cells
experiment: Antiproliferative activity on JJN-3 multiple myeloma cells (CellTiter-Glo, 96 hr), Biological Assay C
Format: cell-based, human
assayConditions: Homo sapiens, JJN-3, 96 h, JJN-3 (NIK translocated) cells, averaged values, read-out: JJN-3 Proliferation inhibition (IC50 (nM))
property: IC50 (nM)

See these solved cases before continuing.
molecule=COC(=O)c1cc(OC)c(Nc2nccc(-c3cc(C#N)c4c(c3)C(C)(C)CN4)n2)cc1Cl property=IC50 observedvalue=1620
molecule=Cc1cc(F)c(C#N)cc1Nc1nccc(-c2cc(C#N)c3c(c2)[C@@](C)(CO)CN3)n1 property=IC50 observedvalue=617
molecule="CN1CCCC(Oc2ccc(Cl)cc2Nc2nccc(-c3cc(C#N)c4c(c3)C(C)(CO)CN4)n2)C1 (mixture of isomers)" property=IC50 observedvalue=87
molecule="CC(C)Oc1ccc(C(F)(F)F)cc1Nc1nccc(-c2cc(C#N)c3c(c2)C(C)(CO)CN3)n1 (stereo not shown)" property=IC50 observedvalue=2340

[A] [2H]C1([2H])OC([2H])([2H])C([2H])([2H])N(C(=O)c2cccc(Nc3nccc(-c4cc(C#N)c5c(c4)[C@@](C)(CO)CN5)n3)c2C)C1([2H])[2H]
[B] Cc1cc(C2CCN(C)CC2)c(C#N)cc1Nc1nccc(-c2cc(C#N)c3c(c2)[C@@](C)(CO)CN3)n1
[C] Cc1ccc(C(=O)NCCN2CCCC2)cc1Nc1nccc(-c2cc(C#N)c3c(c2)[C@@](C)(CO)CN3)n1
**Q:** Rank entries according to their IC50, from the largest number down. # format: label list in the order the request specifies
**A:** C, A, B
(C: 1230 nM, A: 162 nM, B: 27 nM)

====

System: JJN-3 (NIK translocated) multiple myeloma cells
experiment: Antiproliferative activity on JJN-3 multiple myeloma cells (CellTiter-Glo, 96 hr), Biological Assay C
Assay type: cell-based, human
assayConditions: Homo sapiens, JJN-3, 96 h, JJN-3 (NIK translocated) cells, averaged values, read-out: JJN-3 Proliferation inhibition (IC50 (nM))
property: IC50 (nM)

compound="Cc1cc(S(C)(=O)=O)ccc1Nc1nccc(-c2cc(C#N)c3c(c2)[C@@](C)(CO)CN3)n1 [Compound 17]" displayunit=nM observedvalue=56
compound="Cc1ccc(C#N)cc1Nc1nccc(-c2cc(C#N)c3c(c2)[C@](C)(CO)CN3)n1 [Compound 65]" displayunit=nM observedvalue=1100

[P] CN1CCN(Cc2ccc(C#N)cc2Nc2nccc(-c3cc(C#N)c4c(c3)[C@@](C)(CO)CN4)n2)CC1 [Compound 226]
[Q] Cc1ccc(C2CCN(C)CC2)cc1Nc1nccc(-c2cc(C#N)c3c(c2)[C@@](C)(CO)CN3)n1 [Compound 192]
[R] CC1(CO)CNc2c(C#N)cc(-c3ccnc(Nc4cc(Cl)ccc4OC4CCN(C5CC5)CC4)n3)cc21 (stereo not shown) [Compound 35]
**Q:** Hey, quick one: sort these by IC50, low to high? # format: label list in the order the request specifies
**A:** P, R, Q
(P: 74 nM, R: 129 nM, Q: 1180 nM)

====

property: melting point (°C)

See these solved cases before continuing.
molecule=CC(=O)OC[C@@]1(C)CNc2c(C#N)cc(-c3ccnc(Nc4cc(C#N)ccc4C)n3)cc21 observedvalue=213
molecule=Cc1ccc(OC2CCN(C)CC2)c(Nc2nccc(-c3cc(C#N)c4c(c3)[C@@](C)(CO)CN4)n2)c1 observedvalue=192
molecule=C[C@]1(CO)CNc2c(C#N)cc(-c3ccnc(Nc4cc(P(C)(C)=O)ccc4OCC4CC4)n3)cc21 observedvalue=148
molecule="Cc1cc(C2CCCN(C)C2)c(C#N)cc1Nc1nccc(-c2cc(C#N)c3c(c2)[C@@](C)(CO)CN3)n1 (stereo partly shown) [Compound 177]" observedvalue=222
molecule=C[C@]1(CO)CNc2c(C#N)cc(-c3ccnc(Nc4cc(C#N)ccc4C4CC4)n3)cc21 observedvalue=210

[P] CN1CCCC(Oc2ccc(Cl)cc2Nc2nccc(-c3cc(C#N)c4c(c3)C(C)(C)CN4)n2)C1 (stereo not shown)
[Q] COc1cc(Nc2nccc(-c3cc(C#N)c4c(c3)C(C)(C)CN4)n2)c(F)c(OC)c1
**Q:** Between P and Q , which one shows the larger melting point value? Return value: the label identifying the chosen record.
**A:** Q
